# TEST TARGET: ErbB-3 receptor-Ig fusion (human, UniProt P21860 20-643; P21860 20-636)
# Sequence (P21860 other isoform, or with tags, fused parts or gaps): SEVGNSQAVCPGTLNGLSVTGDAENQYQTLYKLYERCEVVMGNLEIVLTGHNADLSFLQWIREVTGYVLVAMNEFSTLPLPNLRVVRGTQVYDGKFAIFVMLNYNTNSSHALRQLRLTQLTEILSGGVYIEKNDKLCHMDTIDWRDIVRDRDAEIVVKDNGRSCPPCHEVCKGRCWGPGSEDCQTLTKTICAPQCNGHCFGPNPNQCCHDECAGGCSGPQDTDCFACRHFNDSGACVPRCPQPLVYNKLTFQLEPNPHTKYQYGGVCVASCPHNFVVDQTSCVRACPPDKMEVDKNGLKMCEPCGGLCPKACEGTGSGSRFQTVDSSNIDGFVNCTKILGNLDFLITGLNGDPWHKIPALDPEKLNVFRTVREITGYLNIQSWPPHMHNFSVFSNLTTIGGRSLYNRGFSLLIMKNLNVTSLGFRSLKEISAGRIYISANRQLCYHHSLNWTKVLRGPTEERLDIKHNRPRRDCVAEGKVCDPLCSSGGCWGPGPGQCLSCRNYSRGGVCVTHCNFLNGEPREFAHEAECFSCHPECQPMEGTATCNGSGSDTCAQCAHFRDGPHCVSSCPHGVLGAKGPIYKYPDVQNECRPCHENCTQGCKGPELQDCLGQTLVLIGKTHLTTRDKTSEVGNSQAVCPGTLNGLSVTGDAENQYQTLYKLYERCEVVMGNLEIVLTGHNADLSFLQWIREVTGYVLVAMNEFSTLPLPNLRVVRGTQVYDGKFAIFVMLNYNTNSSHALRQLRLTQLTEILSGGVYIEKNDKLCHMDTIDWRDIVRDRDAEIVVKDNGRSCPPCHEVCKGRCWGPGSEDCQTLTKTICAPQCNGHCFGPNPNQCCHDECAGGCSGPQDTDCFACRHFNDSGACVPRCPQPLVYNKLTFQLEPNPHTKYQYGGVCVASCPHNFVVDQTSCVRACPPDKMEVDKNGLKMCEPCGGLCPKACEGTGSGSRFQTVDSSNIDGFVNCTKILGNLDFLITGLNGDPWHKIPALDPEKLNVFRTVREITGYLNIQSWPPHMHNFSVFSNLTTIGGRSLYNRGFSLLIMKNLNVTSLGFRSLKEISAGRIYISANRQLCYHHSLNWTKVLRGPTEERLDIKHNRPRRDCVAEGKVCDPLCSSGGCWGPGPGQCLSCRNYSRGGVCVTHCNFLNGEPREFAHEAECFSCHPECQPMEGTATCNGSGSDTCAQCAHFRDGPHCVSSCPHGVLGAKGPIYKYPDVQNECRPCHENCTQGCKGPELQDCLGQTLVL
# ASSAY NOTES: phage ELISA, competition with soluble ErbB-3-Ig
OUTCOME MEASURE: pEC50
Lab note: report pEC50 as minus log10 of the concentration in molar units, number only.

Record request: pEC50 value, item HRG8 (HRG-β1 177-228 fused via (GGGS)3 to pIII 323, displayed on phage) (ligand, human, not shown: large carriers, monovalent phage display; also called pHRG8-g3; wild-type HRG-β1 EGF-phage) SHLVKCAEKEKTFCVNGGECFMVKDLSNPSRYLCKCPNEFTGDRCQNYVMASGGGSGGGSGGGS
6.87

Origin of values: patent US20030129688A1
